- TESTED TARGET: recombinant SARS-CoV-2 Main protease (Mpro) (Severe acute respiratory syndrome coronavirus 2 (2019-nCoV) (SARS-CoV-2), UniProt P0DTD1)
- TEST PROTOCOL: Cov Mpro Biochemical IC50 Assay
- ASSAY SETUP: recombinant SARS-CoV-2 Mpro 7.5 nM, fluorogenic peptide substrate 40 μM; read-out: MPro IC50
Assign IC50 to each entry below.

Ask | Item O=c1[nH]c2cc(-c3ccccc3Cl)sc2c(=O)n1-c1cncc2ccc(N3CCOCC3)cc12 (single isomer, unassigned) [Example 442] has what recorded IC50?
Reply | < 3.43 nM

Ask | Item COc1ccc(C#N)c(-c2cc3[nH]c(=O)n(-c4cncc5ncsc45)c(=O)c3s2)c1 [Example 484] has what recorded IC50?
Reply | 38.9 nM

Ask | Item COc1cc(-c2cc3[nH]c(=O)n(-c4cncc5scc(C)c45)c(=O)c3s2)c(Cl)cc1F (single isomer, unassigned) [Example 1056] has what recorded IC50?
Reply | 2.34 nM

Ask | Item Cc1c2c(-n3c(=O)c4sc(-c5ccc(F)cc5Cl)cc4n(CCC#N)c3=O)cncc2nn1C [Example 797] has what recorded IC50?
Reply | 34.6 nM

Just for reference, patent US20240116946A1 is where these values come from.
